# experimental.system: KOR (Cavia porcellus, UniProt P41144)
# Construct: from tissue
# Sequence (P41144 whole entry): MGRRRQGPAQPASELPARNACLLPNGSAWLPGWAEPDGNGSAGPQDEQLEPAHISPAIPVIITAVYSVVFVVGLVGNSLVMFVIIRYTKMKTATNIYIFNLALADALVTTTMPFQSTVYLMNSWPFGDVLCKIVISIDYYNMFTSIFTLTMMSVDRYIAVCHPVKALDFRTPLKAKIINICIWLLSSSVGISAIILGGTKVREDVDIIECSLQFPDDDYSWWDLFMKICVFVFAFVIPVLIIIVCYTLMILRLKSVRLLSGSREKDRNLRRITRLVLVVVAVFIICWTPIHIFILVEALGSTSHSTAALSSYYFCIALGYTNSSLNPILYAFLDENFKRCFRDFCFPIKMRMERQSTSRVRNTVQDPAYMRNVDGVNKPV
# assay.name: Opioid receptor binding, KOR, guinea pig brain membranes
# study.conditions: Binding Ki (nM) KOR, in vitro binding assay, guinea pig brain membranes
measure: Ki (nM)
A number alone suffices; assume nM.

// solved cases for Ki follow
compound | experimental.system | measure | output.unit | reported
CO[C@@]12CC[C@H](NCC(=O)OCc3ccccc3)[C@@H]3Oc4c(O)ccc5c4[C@@]31CCN(C)[C@@H]2C5 | KOR (Cavia porcellus, UniProt P41144) | Ki | nM | 0.47
CO[C@@]12CC[C@@H](N[C@@H](CC(C)C)C(=O)O)[C@@H]3Oc4c(O)ccc5c4[C@@]31CCN(C)[C@@H]2C5 | KOR (Cavia porcellus, UniProt P41144) | Ki | nM | 297

Record for "CO[C@@]12CC[C@H](N[C@@H](CO)C(=O)O)[C@@H]3Oc4c(O)ccc5c4[C@@]31CCN(C)[C@@H]2C5" under target or system KOR (Cavia porcellus, UniProt P41144): Ki reported as 196

Record for "CO[C@@]12CC[C@H](N[C@@H](CC(C)C)C(=O)OC(C)(C)C)[C@@H]3Oc4c(O)ccc5c4[C@@]31CCN(C)[C@@H]2C5" under target or system KOR (Cavia porcellus, UniProt P41144): Ki reported as 8.07

Record for "CO[C@@]12CC[C@H](N[C@@H](CCC(N)=O)C(=O)O)[C@@H]3Oc4c(O)ccc5c4[C@@]31CCN(C)[C@@H]2C5" under target or system KOR (Cavia porcellus, UniProt P41144): Ki reported as 351
